- TESTED SYSTEM: IRAK4 (Homo sapiens)
- ASSAY PROCEDURE: Hibit fluorescence detection of proteolysis (IRAK4-HiBiT in HEK293T cells)
- Type: cell-based
- Set-up: host or cells: HEK293T (ATCC)
- MEASUREMENT CONTEXT: IRAK4-HiBiT, HEK293T cells, 24 h
We begin with a simple list: items and their reported DC50.

Examples from the recorded data:
Cn1c(=O)n(C2CCC(=O)NC2=O)c2cccc(N3CC4(CCN(C[C@H]5CC[C@H](n6cc(-n7cc(-c8ccc9cc(C(N)=O)cnn89)nn7)c(C(F)F)n6)CC5)CC4)C3)c21 (stereo partly drawn) : < 500 pM
Cn1c(=O)n(C2CCC(=O)NC2=O)c2cccc(N3CCC4(CCN(C[C@H]5CC[C@H](n6cc(-n7cc(-c8cnn9ccc(NCC%10CC%10)nc89)nn7)c(C(F)F)n6)CC5)CC4)CC3)c21 (stereo partly drawn) : < 500 pM

Let's switch to this molecule now.
[Q] Sample Cn1c(=O)n(C2CCC(=O)NC2=O)c2cccc(C3CCN(C[C@H]4CC[C@H](n5cc(-n6cc(-c7ccc8cc(C(N)=O)cnn78)nn6)c(C(F)F)n5)CC4)CC3)c21 (stereo partly drawn) — what was its DC50?
[A] < 500 pM

###

We begin with a simple list: items and their reported Dmax.
- TESTED SYSTEM: IRAK4 (Homo sapiens, UniProt Q9NWZ3)
- Sequence (Q9NWZ3 1-460): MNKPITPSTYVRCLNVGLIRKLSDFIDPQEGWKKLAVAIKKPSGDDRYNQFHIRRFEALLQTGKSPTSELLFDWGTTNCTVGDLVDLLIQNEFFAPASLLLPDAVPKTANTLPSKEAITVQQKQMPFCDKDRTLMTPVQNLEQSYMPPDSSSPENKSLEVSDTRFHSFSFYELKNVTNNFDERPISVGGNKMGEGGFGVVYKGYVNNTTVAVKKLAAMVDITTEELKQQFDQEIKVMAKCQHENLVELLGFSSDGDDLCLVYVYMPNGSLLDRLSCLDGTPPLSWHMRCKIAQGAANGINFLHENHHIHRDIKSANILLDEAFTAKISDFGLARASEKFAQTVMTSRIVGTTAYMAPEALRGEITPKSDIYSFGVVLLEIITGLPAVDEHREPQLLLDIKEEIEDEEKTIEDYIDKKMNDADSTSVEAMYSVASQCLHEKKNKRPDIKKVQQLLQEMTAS
- ASSAY PROCEDURE: Hibit fluorescence detection of proteolysis (IRAK4-HiBiT in HEK293T cells)
- Type: cell-based
- Set-up: host or cells: HEK293T (ATCC)
- MEASUREMENT CONTEXT: HEK-293T

Examples from the recorded data:
Cn1c(=O)n(C2CCC(=O)NC2=O)c2cccc(N3CCC4(CCN(C[C@H]5CC[C@H](n6cc(-n7cc(-c8cnn9ccc(N%10CCC[C@H](O)C%10)nc89)nn7)c(C(F)F)n6)CC5)C4)CC3)c21 (stereo partly drawn) : > 80%
C[C@H]1CN(c2cccc3c2n(C)c(=O)n3C2CCC(=O)NC2=O)CCN1C[C@H]1CC[C@H](n2cc(-n3cc(-n4ccc5cc(C(N)=O)cnc54)nn3)c(C(F)F)n2)CC1 (stereo partly drawn) : > 80%

[Q] Sample Cn1c(=O)n(C2CCC(=O)NC2=O)c2cccc(N3CCC4(CC3)CN(C[C@H]3CC[C@H](n5cc(-n6cc(-c7ccc8cc(C(N)=O)cnn78)nn6)c(C(F)F)n5)CC3)C4)c21 (stereo partly drawn) — what was its Dmax?
[A] > 80%
